Data credit: patent US10526337B2

- tgt: PI3 Kinase (p110δ/p85α) (h) (Homo sapiens)
- Construct: endogenous in cells; host or cells: Raji
- experiment.description: Inhibition of phosphatidylinositol 3-kinase delta (PI3K δ), pAkt Western blotting in IgM-stimulated Raji cells
- Assay type: cell-based
- recorded.conditions: ATP=10 uM, sample concentration=100 nM
parameter: IC50

[[record]]
substance_smiles = "Nc1nc(N2CCC[C@H]2c2nc3cccc(Cl)c3c(=O)n2-c2ccccc2)c2c(=O)nc[nH]c2n1"
tgt = "PI3 Kinase (p110δ/p85α) (h) (Homo sapiens)"
result = "> 500 nM"

[[record]]
substance_smiles = "C[C@H](Nc1nc(N)nc2[nH]cnc(=O)c12)c1nc2cccc(Cl)c2c(=O)n1-c1ccccc1"
tgt = "PI3 Kinase (p110δ/p85α) (h) (Homo sapiens)"
result = "10 to 500 nM"

[[record]]
substance_smiles = "Cc1cccc(-n2c([C@H](C)Nc3ncnc4c3C(=O)N(C)CN4)nc3cccc(Cl)c3c2=O)c1"
tgt = "PI3 Kinase (p110δ/p85α) (h) (Homo sapiens)"
result = "< 10 nM"

[[record]]
substance_smiles = "CCCN1CNc2ncnc(N[C@@H](C)c3cc4cccc(Cl)c4c(=O)n3-c3ccccc3)c2C1=O"
tgt = "PI3 Kinase (p110δ/p85α) (h) (Homo sapiens)"
result = "> 500 nM"

[[record]]
substance_smiles = "Nc1nc(N2CCC[C@H]2c2cc3cccc(Cl)c3c(=O)n2-c2ccccc2)c2c(=O)cc[nH]c2n1"
tgt = "PI3 Kinase (p110δ/p85α) (h) (Homo sapiens)"
result = "10 to 500 nM"

[[record]]
substance_smiles = "C[C@H](Nc1ncnc2[nH]cc(Cl)c(=O)c12)c1cc2cccc(Cl)c2c(=O)n1-c1ccccc1"
tgt = "PI3 Kinase (p110δ/p85α) (h) (Homo sapiens)"
result = "< 10 nM"


*Q* Reported IC50, compound `C[C@H](Nc1ncnc2[nH]cc(Cl)c(=O)c12)c1c(Cl)c2cccc(Cl)c2c(=O)n1-c1ccccc1` : ____
*A* 10 to 500 nM

###

# reported IC50; entries follow
- tgt: PI3 Kinase (p110δ/p85α) (h) (Homo sapiens)
- Construct: endogenous in cells
- experiment.description: Inhibition of phosphatidylinositol 3-kinase delta (PI3K δ), pAkt Western blotting in IgM-stimulated Raji cells
- recorded.conditions: ATP=10 uM, sample concentration=100 nM

Field: example entries. Status: answers known.
[[record]]
substance_smiles = "C[C@H](Nc1ncnc2[nH]ccc(=O)c12)c1nc2ccc(F)cc2c(=O)n1-c1ccccc1"
tgt = "PI3 Kinase (p110δ/p85α) (h) (Homo sapiens)"
result = "< 10 nM"

[[record]]
substance_smiles = "C[C@H](Nc1nc(N)nc2c1C(=O)N(C)CN2)c1nc2cccc(Cl)c2c(=O)n1-c1ccccc1"
tgt = "PI3 Kinase (p110δ/p85α) (h) (Homo sapiens)"
result = "< 10 nM"

[[record]]
substance_smiles = "C[C@H](Nc1ncnc2[nH]ccc(=O)c12)c1nc2cccc(Cl)c2c(=O)n1-c1ccccc1"
tgt = "PI3 Kinase (p110δ/p85α) (h) (Homo sapiens)"
result = "< 10 nM"

[[record]]
substance_smiles = "CN1CNc2ncnc(N3CCC[C@H]3c3nc4cccc(Cl)c4c(=O)n3-c3cccc(F)c3)c2C1=O"
tgt = "PI3 Kinase (p110δ/p85α) (h) (Homo sapiens)"
result = "< 10 nM"

[[record]]
substance_smiles = "C[C@H](Nc1ncnc2c1C(=O)N(C)CN2)c1c(Cl)c2cccc(Cl)c2c(=O)n1-c1ccccc1"
tgt = "PI3 Kinase (p110δ/p85α) (h) (Homo sapiens)"
result = "< 10 nM"

[[record]]
substance_smiles = "O=c1nc[nH]c2ncnc(N3CCC[C@H]3c3nn4ccc(Cl)c4c(=O)n3-c3ccccc3)c12"
tgt = "PI3 Kinase (p110δ/p85α) (h) (Homo sapiens)"
result = "> 500 nM"


*Q* Could you share what IC50 was measured for `O=c1nc[nH]c2ncnc(N3CCC[C@H]3c3nc4cccc(Cl)c4c(=O)n3-c3ccccc3)c12` , tested on PI3 Kinase (p110δ/p85α) (h) (Homo sapiens)?
*A* > 500 nM

###

- tgt: PI3 Kinase (p110δ/p85α) (h) (Homo sapiens, UniProt O00329)
- Construct: endogenous in cells; host or cells: Raji
- Sequence (O00329 whole entry): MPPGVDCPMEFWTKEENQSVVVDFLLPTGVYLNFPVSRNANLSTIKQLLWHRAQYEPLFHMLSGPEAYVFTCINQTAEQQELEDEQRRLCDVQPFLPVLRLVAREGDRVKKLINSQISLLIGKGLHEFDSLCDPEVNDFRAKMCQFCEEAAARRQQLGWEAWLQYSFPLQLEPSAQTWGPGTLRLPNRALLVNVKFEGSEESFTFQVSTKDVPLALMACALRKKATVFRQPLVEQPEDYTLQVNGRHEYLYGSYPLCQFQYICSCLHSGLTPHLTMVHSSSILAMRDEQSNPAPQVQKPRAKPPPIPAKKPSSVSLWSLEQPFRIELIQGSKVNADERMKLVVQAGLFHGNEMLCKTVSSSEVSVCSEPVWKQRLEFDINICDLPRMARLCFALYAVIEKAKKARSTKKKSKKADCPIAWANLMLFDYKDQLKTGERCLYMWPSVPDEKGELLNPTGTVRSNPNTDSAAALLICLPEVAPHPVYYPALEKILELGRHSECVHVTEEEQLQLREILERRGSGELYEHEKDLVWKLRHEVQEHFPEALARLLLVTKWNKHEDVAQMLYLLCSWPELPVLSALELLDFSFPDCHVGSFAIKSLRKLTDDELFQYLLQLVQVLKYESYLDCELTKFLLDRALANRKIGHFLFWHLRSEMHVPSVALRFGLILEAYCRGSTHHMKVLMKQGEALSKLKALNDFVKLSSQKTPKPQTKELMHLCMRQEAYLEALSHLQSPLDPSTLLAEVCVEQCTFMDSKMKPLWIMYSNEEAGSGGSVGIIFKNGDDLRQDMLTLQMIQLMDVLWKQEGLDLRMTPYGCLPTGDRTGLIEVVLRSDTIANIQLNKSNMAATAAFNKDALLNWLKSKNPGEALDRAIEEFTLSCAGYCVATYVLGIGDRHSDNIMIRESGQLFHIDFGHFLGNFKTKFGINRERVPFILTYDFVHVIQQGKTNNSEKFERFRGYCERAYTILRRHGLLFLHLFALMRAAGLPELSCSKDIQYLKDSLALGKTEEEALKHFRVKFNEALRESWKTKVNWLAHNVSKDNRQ
- Sequence (P27986 whole entry partner): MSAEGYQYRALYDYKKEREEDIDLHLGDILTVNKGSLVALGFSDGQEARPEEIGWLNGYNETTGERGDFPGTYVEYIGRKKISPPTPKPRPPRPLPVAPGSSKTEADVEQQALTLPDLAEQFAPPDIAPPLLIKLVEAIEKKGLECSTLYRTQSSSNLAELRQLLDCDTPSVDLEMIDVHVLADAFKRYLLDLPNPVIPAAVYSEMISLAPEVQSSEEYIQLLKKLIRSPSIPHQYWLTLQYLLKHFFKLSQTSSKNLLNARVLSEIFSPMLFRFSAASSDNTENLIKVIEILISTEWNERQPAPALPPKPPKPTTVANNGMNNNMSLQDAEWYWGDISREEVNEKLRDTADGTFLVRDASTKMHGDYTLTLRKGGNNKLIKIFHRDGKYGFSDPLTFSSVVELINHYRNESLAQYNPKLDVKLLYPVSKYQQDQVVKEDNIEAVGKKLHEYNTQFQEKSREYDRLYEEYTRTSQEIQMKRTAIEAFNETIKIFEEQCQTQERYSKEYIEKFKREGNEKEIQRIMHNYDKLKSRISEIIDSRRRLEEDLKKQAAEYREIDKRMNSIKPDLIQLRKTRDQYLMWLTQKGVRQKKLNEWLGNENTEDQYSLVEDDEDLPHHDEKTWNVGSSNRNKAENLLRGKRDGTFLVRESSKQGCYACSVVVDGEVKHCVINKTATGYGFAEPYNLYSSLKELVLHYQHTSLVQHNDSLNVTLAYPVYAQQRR
- experiment.description: Inhibition of phosphatidylinositol 3-kinase delta (PI3K δ), pAkt Western blotting in IgM-stimulated Raji cells
- Assay type: cell-based
- recorded.conditions: ATP=10 uM, sample concentration=100 nM
- Method: The stimulated cells were transferred in a 1.5 mL tube, followed by centrifugation at 3000 rpm for 1 minute. […] Protein was quantified by BCA (bicinchoninic acid) method and samples were prepared. […] The inhibition of phosphatidylinositol 3 kinase delta (PI3K δ) by those compounds prepared in Examples 1˜98 was investigated by the following experiment. The inhibition activity of each compound was measured in the following conditions: ATP=10 uM, and sample concentration=100 nM. […]
pIC50: −log10 of the molar value.
parameter: pIC50

A selection of reference data follows.
[[record]]
molecule = "CN1CNc2nc(N)nc(N3CCC[C@H]3c3nc4cccc(Cl)c4c(=O)n3-c3cccc(F)c3)c2C1=O"
result = "< 6.30"

[[record]]
molecule = "Nc1nc(N2CCC[C@H]2c2nn3ccc(Cl)c3c(=O)n2-c2cccc(F)c2)c2c(=O)nc[nH]c2n1"
result = "< 6.30"

[[record]]
molecule = "C[C@H](Nc1ncnc2c1C(=O)CCN2)c1c(Cl)c2cccc(Cl)c2c(=O)n1-c1ccccc1"
result = "> 8.00"

[[record]]
molecule = "C[C@H](Nc1nc(N)nc2[nH]cnc(=O)c12)c1cc2cccc(Cl)c2c(=O)n1-c1ccccc1"
result = "6.30 to 8.00"


*Q* Dear colleague, I am looking for the recorded pIC50 of the following molecule: `Cc1cccc(-n2c([C@@H]3CCCN3c3ncnc4c3C(=O)N(C)CN4)nc3cccc(Cl)c3c2=O)c1`
*A* 6.30 to 8.00

*Q* Also, CC(Nc1ncnc2c1C(=O)N(C)CN2)c1cc2ccccc2nc1-c1ccccc1 (stereo not drawn) please.
*A* 6.30 to 8.00

*Q* Now try `C[C@H](Nc1nc(N)nc2[nH]cnc(=O)c12)c1nn2ccc(Cl)c2c(=O)n1-c1cccc(F)c1` .
*A* > 8.00

*Q* Cool, now `C[C@H](Nc1nc(N)nc2[nH]cnc(=O)c12)c1nc2cccc(Cl)c2c(=O)n1-c1cccnc1`
*A* 6.30 to 8.00

*Q* Same for `C[C@H](Nc1ncnc2[nH]cnc(=O)c12)c1cc2cccc(Cl)c2c(=O)n1-c1ccccc1`
*A* 6.30 to 8.00

*Q* What about this molecule? `C[C@H](Nc1ncnc2[nH]ccc(=O)c12)c1cc2ccc(F)cc2nc1-c1ccccn1`
*A* > 8.00

###

Property: pIC50; scope: individual molecules
- tgt: PI3 Kinase (p110δ/p85α) (h) (Homo sapiens, UniProt O00329)
- Construct: endogenous in cells
- experiment.description: Inhibition of phosphatidylinositol 3-kinase delta (PI3K δ), pAkt Western blotting in IgM-stimulated Raji cells
- recorded.conditions: ATP=10 uM, sample concentration=100 nM
pIC50: −log10 of the molar value.

[[record]]
molecule = "C[C@H](Nc1ncnc2c1C(=O)CCN2)c1cc2cccc(Cl)c2c(=O)n1-c1ccccc1 [Example 97]"
tgt = "PI3 Kinase (p110δ/p85α) (h) (Homo sapiens, UniProt O00329)"
parameter = "pIC50"
result = "> 8.00"

[[record]]
molecule = "CN1CNc2ncnc(N3CCC[C@H]3c3nc4cccc(Cl)c4c(=O)n3-c3ccccc3)c2C1=O [Example 42]"
tgt = "PI3 Kinase (p110δ/p85α) (h) (Homo sapiens, UniProt O00329)"
parameter = "pIC50"
result = "6.30 to 8.00"

[[record]]
molecule = "C[C@H](Nc1nc(N)nc2c1C(=O)N(C)CN2)c1cc2cccc(Cl)c2c(=O)n1-c1ccccc1 [Example 52]"
tgt = "PI3 Kinase (p110δ/p85α) (h) (Homo sapiens, UniProt O00329)"
parameter = "pIC50"
result = "> 8.00"

[[record]]
molecule = "Nc1nc(N2CCC[C@H]2c2nn3ccc(Cl)c3c(=O)n2-c2ccccc2)c2c(=O)nc[nH]c2n1 [Example 95]"
tgt = "PI3 Kinase (p110δ/p85α) (h) (Homo sapiens, UniProt O00329)"
parameter = "pIC50"
result = "6.30 to 8.00"


*Q* Record request: pIC50 value, item CC[C@H](Nc1ncnc2[nH]cnc(=O)c12)c1nc2cccc(F)c2c(=O)n1-c1ccccc1 [Example 73]
*A* < 6.30

*Q* Another molecule to check: C[C@H](Nc1nc(N)nc2[nH]cnc(=O)c12)c1nc2cccc(Cl)c2c(=O)n1-c1cccc(F)c1 [Example 83]
*A* < 6.30

*Q* Do the same for O=c1cc[nH]c2ncnc(N3CCC[C@H]3c3cc4cccc(Cl)c4c(=O)n3-c3ccccc3)c12 [Example 14] please
*A* 6.30 to 8.00
